Target: T1, extracellular domain of human CD73 protein, C-terminus polyhistidine-tagged (human, UniProt P21589 27-547)
T1 construct: also the immunogen; also called CD73-ECD; human CD73-ECD
T1 sequence: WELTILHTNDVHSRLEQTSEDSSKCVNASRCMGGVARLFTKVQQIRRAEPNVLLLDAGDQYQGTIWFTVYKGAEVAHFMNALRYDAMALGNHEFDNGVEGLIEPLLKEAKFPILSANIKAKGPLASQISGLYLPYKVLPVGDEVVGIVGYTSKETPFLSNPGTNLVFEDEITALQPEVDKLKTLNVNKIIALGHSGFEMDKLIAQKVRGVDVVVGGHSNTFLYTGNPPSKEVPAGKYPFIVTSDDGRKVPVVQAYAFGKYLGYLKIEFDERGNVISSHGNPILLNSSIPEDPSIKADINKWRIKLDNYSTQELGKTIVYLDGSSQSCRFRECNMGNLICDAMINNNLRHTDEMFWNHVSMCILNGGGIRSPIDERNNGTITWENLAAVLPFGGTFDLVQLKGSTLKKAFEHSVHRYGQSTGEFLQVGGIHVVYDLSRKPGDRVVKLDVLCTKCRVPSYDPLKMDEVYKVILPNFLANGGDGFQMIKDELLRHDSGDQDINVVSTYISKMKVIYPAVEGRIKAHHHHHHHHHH
Test: ELISA on CD73-ECD, 4 µL supernatant of antibody expression, second of two readings; PBS 0.19, 0.18
Reported ELISA reading (not named on the sheet) by item:
Field format: numeric only.

5-E11 derived antibody 5-E11AS (VHH, not shown: a dimerising Fc or GST) VHH: ALQLVESGGGLVQPGGSLRLSCEVSGFTLDYYNIGWFRQAPGKEREGVSCSSASGGSTYYADSVKGRFTISRDNAKNTVYLQMNSLKPEDTGVYYCAAYRGWHPSLDARVYDYWGQGTEVTVSS | 4.22
5-E11 derived antibody 5-E11QS (VHH, not shown: a dimerising Fc or GST) VHH: ALQLVESGGGLVQPGGSLRLSCEVSGFTLDYYNIGWFRQAPGKEREGVSCSSQSGGSTYYADSVKGRFTISRDNAKNTVYLQMNSLKPEDTGVYYCAAYRGWHPSLDARVYDYWGQGTEVTVSS | 4.16
chimeric nanobody 5-E11 (Fc fusion, Human-alpaca chimeric antibody (VHH on hIgG1 Fc); Only the VHH is tied to the tested molecule; also called original antibody 5-E11) VHH: ALQLVESGGGLVQPGGSLRLSCEVSGFTLDYYNIGWFRQAPGKEREGVSCSSNSGGSTYYADSVKGRFTISRDNAKNTVYLQMNSLKPEDTGVYYCAAYRGWHPSLDARVYDYWGQGTEVTVSS | 4.17

Please turn your attention to the following entry.
Problem: Tell me the measured ELISA reading (not named on the sheet) of 5-E11 derived antibody 5-E11GS (VHH, not shown: a dimerising Fc or GST) VHH: ALQLVESGGGLVQPGGSLRLSCEVSGFTLDYYNIGWFRQAPGKEREGVSCSSGSGGSTYYADSVKGRFTISRDNAKNTVYLQMNSLKPEDTGVYYCAAYRGWHPSLDARVYDYWGQGTEVTVSS , please.
Solution: 4.17
